- System: TYK2 kinase domain (Homo sapiens)
- Construct: made in house; host or cells: SF9 insect cells (recombinant baculovirus)
- Sequence (P29597 873-1187): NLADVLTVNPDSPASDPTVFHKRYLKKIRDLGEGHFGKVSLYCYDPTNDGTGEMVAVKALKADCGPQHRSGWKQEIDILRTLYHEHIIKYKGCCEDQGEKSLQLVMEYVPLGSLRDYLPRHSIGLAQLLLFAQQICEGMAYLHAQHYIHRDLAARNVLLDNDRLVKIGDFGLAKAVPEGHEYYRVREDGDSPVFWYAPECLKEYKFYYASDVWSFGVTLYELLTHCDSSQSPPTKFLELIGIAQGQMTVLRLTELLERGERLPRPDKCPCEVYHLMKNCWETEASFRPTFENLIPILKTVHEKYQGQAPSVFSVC
- Measurement Notes: TYK2 inhibition assay (Caliper LabChip, isolated kinase domain)
- Format: biochemical
Attribute Measured: Ki

> print(dat)
                                   molecule  measurement
1  N#Cc1cc(Cl)c(C(=O)Nc2ccnc(NC(=O)C3CC3)c2)c(Cl)c1        ~2 nM
2  O=C(Nc1ccnc(NC(=O)[C@H]2C[C@@H]2c2nnn[nH]2)c1)c1c(Cl)cccc1Cl (relative stereo)       ~52 nM
